Molecular target: HLA-A*02:01
Assay: IEDB peptide-MHC binding, purified MHC/direct/fluorescence; filed as Kd, often an IC50 or EC50 that approximates it; bounds were set here for any values at or beyond the usual limits of such assays
Conditions: source organism: Marburg virus - Musoke, Kenya, 1980
measure.name: pKd
API: returns pKd as number; meaning -log10 of concentration in mol/L.

Lab note: "WLDSVIQYL" gave pKd of 6.84

====

Biological target: HLA-C*06:02
Assay: IEDB peptide-MHC binding, purified MHC/direct/fluorescence; filed as Kd, often an IC50 or EC50 that approximates it; bounds were set here for any values at or beyond the usual limits of such assays
Conditions: source organism: Listeria monocytogenes J0161
measure.name: Kd (µM)
Give just the number in µM; leave the unit off.

Lab note: "GRYYVLQFV" gave Kd of 0.301

====

Target: HLA-B*51:01
Test: IEDB peptide-MHC binding, purified MHC/competitive/radioactivity; filed as Kd, often an IC50 or EC50 that approximates it; bounds were set here for any values at or beyond the usual limits of such assays
Settings: source organism: Vaccinia virus Copenhagen
measure.name: Kd

Kindly note: HLA-B*51:01, "FLTSVINRV" , Kd value reported: ≥ 37.2 µM

====

Target: HLA-B*45:01
Assay: IEDB peptide-MHC binding, purified MHC/competitive/radioactivity; filed as Kd, often an IC50 or EC50 that approximates it; bounds were set here for any values at or beyond the usual limits of such assays
Conditions: source organism: Mammarenavirus machupoense
measure.name: pKd
API: returns pKd as number; meaning -log10 of concentration in mol/L.

Lab note: "EEPAALLPLS" gave pKd of 6.68

====

Target: HLA-A*02:03
Assay: IEDB peptide-MHC binding, purified MHC/competitive/radioactivity; filed as Kd, often an IC50 or EC50 that approximates it; bounds were set here for any values at or beyond the usual limits of such assays
Conditions: source organism: Hepatitis C virus (isolate 1)
measure.name: pKd
API: returns pKd as number; meaning -log10 of concentration in mol/L.

Lab note: "HPNIEEVAL" gave pKd of 4.76

====

Target: HLA-A*31:01
Experiment: IEDB peptide-MHC binding, purified MHC/competitive/fluorescence; filed as Kd, often an IC50 or EC50 that approximates it; bounds were set here for any values at or beyond the usual limits of such assays
Settings: source organism: Influenza A virus (A/X-31(H3N2))
measure.name: Kd (nM)
Give just the number in nM; leave the unit off.

Lab note: "SSFQDILLR" gave Kd of 309

====

Molecular target: HLA-A*02:03
Experiment: IEDB peptide-MHC binding, purified MHC/competitive/radioactivity; filed as Kd, often an IC50 or EC50 that approximates it; bounds were set here for any values at or beyond the usual limits of such assays
Settings: source organism: Vaccinia virus WR
Lab note - cut at 2000 nM for Kd: class 1 if strictly below, class 0 if not.

Query string: Given "HIGHHYIWI" , is recorded Kd strictly lower than 2000 nM?
Result string: class 1

Query string: Given "GLKIEEIEKV" , is recorded Kd strictly lower than 2000 nM?
Result string: class 1

Query string: Given "TVQEFIFSAL" , is recorded Kd strictly lower than 2000 nM?
Result string: class 1

Query string: Given "YLGIFKNNDV" , is recorded Kd strictly lower than 2000 nM?
Result string: class 1

Query string: Given "DTEFINKFL" , is recorded Kd strictly lower than 2000 nM?
Result string: class 0

Query string: Given "YLPEVISTIA" , is recorded Kd strictly lower than 2000 nM?
Result string: class 1

Query string: Given "NIKISLNEI" , is recorded Kd strictly lower than 2000 nM?
Result string: class 1

Query string: Given "FTHTTAFFNT" , is recorded Kd strictly lower than 2000 nM?
Result string: class 0

Query string: Given "VTLNRIKIA" , is recorded Kd strictly lower than 2000 nM?
Result string: class 1

Query string: Given "DLNRMPTDML" , is recorded Kd strictly lower than 2000 nM?
Result string: class 0

Query string: Given "DQDTMLFASA" , is recorded Kd strictly lower than 2000 nM?
Result string: class 1

Query string: Given "VLTSVDIET" , is recorded Kd strictly lower than 2000 nM?
Result string: class 0

Query string: Given "TTTFITVLT" , is recorded Kd strictly lower than 2000 nM?
Result string: class 0

Query string: Given "YLSDSDNIKI" , is recorded Kd strictly lower than 2000 nM?
Result string: class 1

Query string: Given "QLVKDESIQL" , is recorded Kd strictly lower than 2000 nM?
Result string: class 1

Query string: Given "SVKNLILNFL" , is recorded Kd strictly lower than 2000 nM?
Result string: class 1

Query string: Given "CTSEIQNVT" , is recorded Kd strictly lower than 2000 nM?
Result string: class 0

Query string: Given "SLCPTKKLV" , is recorded Kd strictly lower than 2000 nM?
Result string: class 0

Query string: Given "WVMDTLNGIM" , is recorded Kd strictly lower than 2000 nM?
Result string: class 1

Query string: Given "KLPTWLGAAI" , is recorded Kd strictly lower than 2000 nM?
Result string: class 1

Query string: Given "DQTHIKTIAV" , is recorded Kd strictly lower than 2000 nM?
Result string: class 1

Query string: Given "TLFYCDERDA" , is recorded Kd strictly lower than 2000 nM?
Result string: class 0

Query string: Given "YASLTTIGTI" , is recorded Kd strictly lower than 2000 nM?
Result string: class 1

Query string: Given "MTIREFPRK" , is recorded Kd strictly lower than 2000 nM?
Result string: class 0

Query string: Given "IVILFIMFM" , is recorded Kd strictly lower than 2000 nM?
Result string: class 1

Query string: Given "WLKDSAIMV" , is recorded Kd strictly lower than 2000 nM?
Result string: class 1

Query string: Given "LLDEPLSPDT" , is recorded Kd strictly lower than 2000 nM?
Result string: class 0

Query string: Given "ETFPNVHEHI" , is recorded Kd strictly lower than 2000 nM?
Result string: class 0

Query string: Given "LQQNNSFII" , is recorded Kd strictly lower than 2000 nM?
Result string: class 0

Query string: Given "TITTFIPISA" , is recorded Kd strictly lower than 2000 nM?
Result string: class 1

Query string: Given "VIVPDIKLDA" , is recorded Kd strictly lower than 2000 nM?
Result string: class 0

Query string: Given "TIGTIAGGV" , is recorded Kd strictly lower than 2000 nM?
Result string: class 1

Query string: Given "ITRLEVIGLT" , is recorded Kd strictly lower than 2000 nM?
Result string: class 1

Query string: Given "SIFVSTMPV" , is recorded Kd strictly lower than 2000 nM?
Result string: class 1

Query string: Given "FVVNGHTCM" , is recorded Kd strictly lower than 2000 nM?
Result string: class 0

Query string: Given "VTPEYIKDL" , is recorded Kd strictly lower than 2000 nM?
Result string: class 0

Query string: Given "NLEELTTVFI" , is recorded Kd strictly lower than 2000 nM?
Result string: class 0

Query string: Given "RVLYDEFVTI" , is recorded Kd strictly lower than 2000 nM?
Result string: class 1

Query string: Given "EAKTHFSTT" , is recorded Kd strictly lower than 2000 nM?
Result string: class 0

Query string: Given "FTDCRTIDAI" , is recorded Kd strictly lower than 2000 nM?
Result string: class 0

Query string: Given "YQNEVTPEYI" , is recorded Kd strictly lower than 2000 nM?
Result string: class 1

Query string: Given "DTMSIYIAVA" , is recorded Kd strictly lower than 2000 nM?
Result string: class 1

Query string: Given "VTSPLTGNNT" , is recorded Kd strictly lower than 2000 nM?
Result string: class 0

Query string: Given "SLVSKHWELT" , is recorded Kd strictly lower than 2000 nM?
Result string: class 1

====

Biological target: HLA-C*06:02
Assay: IEDB peptide-MHC binding, purified MHC/direct/fluorescence; filed as Kd, often an IC50 or EC50 that approximates it; bounds were set here for any values at or beyond the usual limits of such assays
Conditions: source organism: SARS-CoV1
measure.name: pKd
API: returns pKd as number; meaning -log10 of concentration in mol/L.

Kindly note: HLA-C*06:02, "FRYMNSQGL" , pKd value reported: 8.70

====

Biological target: HLA-B*40:01
Assay: IEDB peptide-MHC binding, purified MHC/direct/fluorescence; filed as Kd, often an IC50 or EC50 that approximates it; bounds were set here for any values at or beyond the usual limits of such assays
Details: source organism: Mycobacterium tuberculosis
measure.name: Kd (nM)
Give just the number in nM; leave the unit off.

Lab note: "LEMQHLISL" gave Kd of 13.7

Lab note: "LEYDGFADF" gave Kd of 42.4

====

Target: HLA-A*24:02
Assay: IEDB peptide-MHC binding, purified MHC/competitive/fluorescence; filed as Kd, often an IC50 or EC50 that approximates it; bounds were set here for any values at or beyond the usual limits of such assays
Conditions: source organism: Influenza A virus (A/Swine/Indiana/9K035/99 (H1N2))
measure.name: pKd
API: returns pKd as number; meaning -log10 of concentration in mol/L.

Lab note: "RYSKKFKPEI" gave pKd of 7.48
